Tested on: A375 multi-cell spheroids with HUVEC/MSC, viability
Test: Anticancer human tumor A375 cell line growth inhibition [GQUAD]; active = viability on the fitted dose curve at most 10% of control; inactive = the rest;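 also: spheroids exposed to compounds for seven days before readout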
Conditions: second compound 3.16 µM; first compound 10 µM
Returns: one label drawn from yes (1) = active, no (0) = inactive

| molecule | measured-on | class-label |
| --- | --- | --- |
| C#Cc1c(F)ccc2cc(O)cc(-c3ncc4c(N5CC6CCC(C5)N6)nc(OCC56CCCN5CC(F)C6)nc4c3F)c12 (stereo unspecified) + CN(C)c1ccc(Nc2c3ccc(NC(=O)CCN4CCCC4)cc3nc3cc(NC(=O)CCN4CCCC4)ccc23)cc1 | A375 multi-cell spheroids with HUVEC/MSC, viability | no (0) |
| COc1ccc([C@@H](O)c2cc(-c3ncnc4cc(N5CCOCC5)ccc34)c(F)cc2Cl)nn1 + Cc1[nH]c2ccc(F)cc2c1-c1nc2c3cccnc3c3ncccc3c2[nH]1 | A375 multi-cell spheroids with HUVEC/MSC, viability | no (0) |
| C=CC(=O)N1CCN(c2nc(=O)n(-c3c(C)ccnc3C(C)C)c3nc(-c4c(O)cccc4F)c(F)cc23)C(C)C1 (stereo unspecified) + Cc1cnc(CNC(=O)c2c(=O)c3ccc(N4CCCN(C)CC4)nc3n3c2sc2ccccc23)cn1 | A375 multi-cell spheroids with HUVEC/MSC, viability | no (0) |
| COc1ccc([C@@H](O)c2cc(-c3ncnc4cc(N5CCOCC5)ccc34)c(F)cc2Cl)nn1 + CN(C)c1ccc(Nc2c3ccc(NC(=O)CCN4CCCC4)cc3nc3cc(NC(=O)CCN4CCCC4)ccc23)cc1 | A375 multi-cell spheroids with HUVEC/MSC, viability | no (0) |
| O=C(c1cc(Cc2n[nH]c(=O)c3ccccc23)ccc1F)N1CCN(C(=O)C2CC2)CC1 + Cc1cnc(CNC(=O)c2c(=O)c3ccc(N4CCCN(C)CC4)nc3n3c2sc2ccccc23)cn1 | A375 multi-cell spheroids with HUVEC/MSC, viability | no (0) |
| COc1cccc2c1C(=O)c1c(O)c3c(c(O)c1C2=O)CC(O)(C(=O)CO)CC3OC1CC(N)C(O)C(C)O1 (stereo unspecified) + Cc1[nH]c2ccc(F)cc2c1-c1nc2c3cccnc3c3ncccc3c2[nH]1 | A375 multi-cell spheroids with HUVEC/MSC, viability | yes (1) |

Inquiry: # lookup: test call for COc1ncnc(C2CC2)c1-c1ncc2cnn(Cc3ccc(-c4nc(C(F)(F)F)cn4C(C)C)cc3)c2n1 + Cc1cnc(CNC(=O)c2c(=O)c3ccc(N4CCCN(C)CC4)nc3n3c2sc2ccccc23)cn1
Reply text: no (0)

Inquiry: What did the test return for COc1cc(C2c3cc4c(cc3C(OC3OC5COC(C)OC5C(O)C3O)C3COC(=O)C23)OCO4)cc(OC)c1O (stereo unspecified) + Cc1cnc(CNC(=O)c2c(=O)c3ccc(N4CCCN(C)CC4)nc3n3c2sc2ccccc23)cn1 ?
Reply text: no (0)

----------
System: A375 multi-cell spheroids with HUVEC/MSC, viability
Assay: Anticancer human tumor A375 cell line growth inhibition [GQUAD];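 also: spheroids exposed to compounds for seven days before readout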
Details: second compound 10 µM; first compound 0.000999 µM; stronger effect = lower value
Reported viability, T/C by item:

# example entries with known answers
| compound | measured-on | viability, T/C |
| --- | --- | --- |
| CCc1c2c(nc3ccc(O)cc13)-c1cc3c(c(=O)n1C2)COC(=O)[C@]3(O)CC + Cc1cnc(CNC(=O)c2c(=O)c3ccc(N4CCCN(C)CC4)nc3n3c2sc2ccccc23)cn1 | A375 multi-cell spheroids with HUVEC/MSC, viability | 18.4% |
| Cn1ncnc1[C@H]1c2n[nH]c(=O)c3cc(F)cc(c23)N[C@@H]1c1ccc(F)cc1 + CN(C)c1ccc(Nc2c3ccc(NC(=O)CCN4CCCC4)cc3nc3cc(NC(=O)CCN4CCCC4)ccc23)cc1 | A375 multi-cell spheroids with HUVEC/MSC, viability | 98.3% |
| CCc1c2c(nc3ccc(O)cc13)-c1cc3c(c(=O)n1C2)COC(=O)[C@]3(O)CC + Cc1[nH]c2ccc(F)cc2c1-c1nc2c3cccnc3c3ncccc3c2[nH]1 | A375 multi-cell spheroids with HUVEC/MSC, viability | 39.4% |
| CC[C@@]1(O)C(=O)OCc2c1cc1n(c2=O)Cc2cc3c(CN(C)C)c(O)ccc3nc2-1 + Cc1[nH]c2ccc(F)cc2c1-c1nc2c3cccnc3c3ncccc3c2[nH]1 | A375 multi-cell spheroids with HUVEC/MSC, viability | 92.2% |

API: the following record is the query input.
Reported viability, T/C of CCc1c2c(nc3ccc(O)cc13)-c1cc3c(c(=O)n1C2)COC(=O)[C@]3(O)CC + CN(C)c1ccc(Nc2c3ccc(NC(=O)CCN4CCCC4)cc3nc3cc(NC(=O)CCN4CCCC4)ccc23)cc1 : 46.9%
